# protocol.summary: chemical genetic growth profiling, strain panel (AID 1159580);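 note: tested at 20 µM; growth read once vehicle control cultures reached saturation at 30 °C; 1 = growth at the plate median or of vehicle wells; lower values mean less growth of the strain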
# settings: S. cerevisiae deletion strains, growth OD, locus YPL256C, strain CLN2, active compounds read low
Hit rate of the full screen: of about 5,500 compounds, about 2,000 (36%) were called active. Roughly 18% stayed inconclusive and do not appear here. The list shows a part of the results.
Threshold 0.9. normalized growth below it: y. normalized growth at it or above: n.

Known results for molecules:
[
  {
    "molecule": "COc1cc(N=Cc2cc(Cl)cc(Cl)c2OS(=O)(=O)c2ccc(C)cc2)c(OC)cc1Cl",
    "label": "y"
  },
  {
    "molecule": "CC1=CC(=O)CC(C)(C)C1(O)/C=C/C(C)=C\\C(=O)O (stereo not given)",
    "label": "n"
  },
  {
    "molecule": "COc1cc(C(=O)Oc2c(Cl)cc(Cl)cc2C=Nc2ccc([N+](=O)[O-])cc2C#N)cc(OC)c1OC",
    "label": "y"
  },
  {
    "molecule": "COCCOc1ccccc1NC(=S)SCCSC(=S)Nc1ccccc1OCCOC",
    "label": "n"
  },
  {
    "molecule": "CCC(COC(=O)c1cc(OC)c(OC)c(OC)c1)(c1ccccc1)N(C)C (stereo not given)",
    "label": "n"
  },
  {
    "molecule": "CC12CCC(CC1)C(C)(C)O2",
    "label": "n"
  },
  {
    "molecule": "COc1cc(C(=O)Oc2c(Cl)cc(Cl)cc2C=Nc2cccc(C(F)(F)F)c2)cc(OC)c1OC",
    "label": "y"
  },
  {
    "molecule": "CN(Cc1cnc2nc(N)nc(N)c2n1)c1ccc(C(=O)NC(CCC(=O)O)C(=O)O)cc1 (stereo not given)",
    "label": "y"
  }
]

Just wondering, is normalized growth of "CCOC(=O)NC(=S)NC12CC3CC(CC(C3)C1)C2" below 0.9?
n

---

# protocol.summary: chemical genetic growth profiling, strain panel (AID 1159580);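 note: tested at 20 µM; growth read once vehicle control cultures reached saturation at 30 °C; 1 = growth at the plate median or of vehicle wells; lower values mean less growth of the strain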
# settings: S. cerevisiae deletion strains, growth OD, locus YDL134C, strain PPH21, active compounds read low
Hit rate of the full screen: of about 5,500 compounds, about 2,000 (36%) were called active. Not shown: some 18% with an inconclusive outcome. The list shows a part of the results.
property.measured: normalized growth
Form: value (number only, do not type unit).

[
  {
    "molecule": "CC(=O)C1=C(O)C2C3c4c[nH]c5cccc(c45)CC3C(C)(C)N2C1=O (stereo not given)",
    "normalized growth": 1
  },
  {
    "molecule": "Cc1onc(-c2ccccc2Cl)c1C(=O)Nc1ccc(S(=O)(=O)Nc2nccs2)cc1",
    "normalized growth": 0.976
  },
  {
    "molecule": "COc1ccc(-c2cc(C(F)F)nn2-c2ccc(S(N)(=O)=O)cc2)cc1F",
    "normalized growth": 0.994
  },
  {
    "molecule": "O=C(Nc1cc(C(F)(F)F)cc(C(F)(F)F)c1)C(Sc1ccccn1)c1ccccc1 (stereo not given)",
    "normalized growth": 0.979
  },
  {
    "molecule": "COc1cc(O)cc(/C=C/c2ccccc2)c1",
    "normalized growth": 0.697
  }
]

Could you share which normalized growth value was measured for "OC/C=C/c1ccc(O)c(O)c1" ?
1.05

Could you share which normalized growth value was measured for "COc1ccc(/C=C/c2cc(O)cc(O)c2)cc1" ?
0.895

Could you share which normalized growth value was measured for "COS(C)(=O)=O" ?
1

Could you share which normalized growth value was measured for "Cc1ccc(Cl)cc1NC(=S)NCCO" ?
0.996

Could you share which normalized growth value was measured for "COC(=O)[C@H]1[C@H]2C[C@@H]3c4[nH]c5cc(OC)ccc5c4CCN3C[C@H]2C[C@@H](OC(=O)c2cc(OC)c(OC)c(OC)c2)[C@@H]1OC" ?
1

Could you share which normalized growth value was measured for "Oc1ccc(/C=C/c2cc(O)cc(O)c2)cc1" ?
0.982

Could you share which normalized growth value was measured for "CSc1nc2ccc(NC(=O)c3c(-c4ccccc4)noc3C)cc2s1" ?
1

Could you share which normalized growth value was measured for CC[C@@H]1[C@@H](O)N2C3C[C@H]1C1C(O)[C@]4(C[C@@H]12)c1ccccc1N(C)[C@@H]34 (stereo not given in full) ?
0.986

Could you share which normalized growth value was measured for CC(=O)O[C@H]1CC[C@@]2(C)C(=CCC3C2CC[C@@]2(C)C3CC[C@@H]2C(C)CCCC(C)C)C1 (stereo not given in full) ?
1.02

Could you share which normalized growth value was measured for "S=C(NCCCn1ccnc1)Nc1cc(Cl)ccc1Cl" ?
0.868

Could you share which normalized growth value was measured for CCC(CCC(C)C1CCC2C3CC=C4C[C@@H](OC(C)=O)CC[C@]4(C)C3CC[C@]12C)C(C)C (stereo not given in full) ?
1.01

Could you share which normalized growth value was measured for "CCOP(=S)(OCC)Oc1ccc2c(C)c(Cl)c(=O)oc2c1" ?
0.981

Could you share which normalized growth value was measured for "Cc1onc(-c2ccccc2Cl)c1C(=O)Nc1ccc2c(c1)OCO2" ?
0.985

Could you share which normalized growth value was measured for CC[C@@]1(C2O[C@@H](C3O[C@@](O)(CC)[C@H](C)C[C@@H]3C)C[C@@H]2C)CC[C@H]([C@]2(C)CCC3(C[C@H](O)[C@@H](C)[C@@H]([C@H](C)[C@@H](OC)[C@H](C)C(=O)O)O3)O2)O1 (stereo not given in full) ?
1.05

Could you share which normalized growth value was measured for CC(C)C1=CC2=CCC3[C@](C)(CCC[C@]3(C)C(=O)O)C2CC1 (stereo not given in full) ?
0.935

Data origin: PubChem BioAssay AID1159580
